Target: FLT-3 kinase (Homo sapiens)
Construct: human FLT-3 (Arg571-Ser993); GST (N); purchased Cell Signaling Technology HTScan FLT-3 Kinase Assay Kit; host or cells: baculovirus expression system
Sequence (P36888 571-993): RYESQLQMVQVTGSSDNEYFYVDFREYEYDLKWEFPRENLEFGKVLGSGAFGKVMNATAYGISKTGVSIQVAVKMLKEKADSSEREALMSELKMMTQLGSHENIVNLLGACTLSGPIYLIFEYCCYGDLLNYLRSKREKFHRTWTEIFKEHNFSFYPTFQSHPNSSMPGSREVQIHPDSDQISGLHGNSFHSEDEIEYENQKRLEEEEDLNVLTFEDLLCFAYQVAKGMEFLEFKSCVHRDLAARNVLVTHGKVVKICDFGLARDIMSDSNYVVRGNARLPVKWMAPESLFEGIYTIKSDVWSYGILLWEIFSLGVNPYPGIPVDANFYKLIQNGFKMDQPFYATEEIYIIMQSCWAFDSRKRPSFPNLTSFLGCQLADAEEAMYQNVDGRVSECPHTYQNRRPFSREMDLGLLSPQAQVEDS
Test: FLT-3 kinase DELFIA assay (HTScan FLT-3 Kinase Assay Kit)
Type: biochemical
Settings: 1 uM compound, 20 uM ATP
Reported inhibition at 1 µM values follow for various compounds
measurement.label: inhibition at 1 µM

• O=c1[nH]c2cccccc-2c1-c1nc2cc(N3CCCN(CCF)CC3)ccc2[nH]1 = 71.4%
• O=c1[nH]c2cccccc-2c1-c1nc2cc(N3CCCN(CCCF)CC3)ccc2[nH]1 = 81.6%
• CCCCN(CCCC)CCN1CCN(c2ccc3[nH]c(-c4c5cccccc-5[nH]c4=O)nc3c2)CC1 = 85.4%
• O=C(Nc1ccc2[nH]c(-c3c4cccccc-4[nH]c3=O)nc2c1)Nc1ccc(Cl)cc1C(F)(F)F = 70.8%
• O=c1[nH]c2cccccc-2c1-c1nc2cc([N+](=O)[O-])ccc2[nH]1 = 27.1%
• CN(C)c1ccc(CN2CCN(c3ccc4[nH]c(-c5c6cccccc-6[nH]c5=O)nc4c3)CC2)cc1 = 77%
• CN1CCN(C2CCN(c3ccc4[nH]c(-c5c6cccccc-6[nH]c5=O)nc4c3)CC2)CC1 = 86%
• O=c1[nH]c2cccccc-2c1-c1nc2cc(F)ccc2[nH]1 = 59.9%
